- subject of test: Human α-thrombin (Homo sapiens)
- Construct: Human α-thrombin was purchased from Haemotologic Technologies, Inc., VT, USA; purchased Haemotologic Technologies, Inc., VT, USA
- protocol summary: Thrombin inhibition constants of monovalent active-site moieties and TWE1 (method not described)
- Type: biochemical
- condition notes: monovalent binding moieties for the active site of thrombin
Non-standard residues stand in square brackets, D forms with d. Residues, ends and D or L forms follow the SMILES beside them. *: point of attachment. Dansyl = CN(C)c1cccc2c(S(=O)(=O)*)cccc12; dPip = O=C(O)[C@H]1CCCCN1
endpoint label: Ki (nM)

Example results:
CC(C)(C)c1ccc(S(=O)(=O)N[C@@H](CCCNC(=N)N)C(=O)N2CCCC[C@@H]2C(N)=O)cc1 :: 1130
CC(C)(C)c1ccc(S(=O)(=O)N[C@@H](CCCNC(=N)N)C(=O)N2CCCC[C@@H]2C(=O)NCC(N)=O)cc1 :: 2260
CN(C)c1cccc2c(S(=O)(=O)N[C@@H](CCCNC(=N)N)C(=O)N3CCCC[C@@H]3C(N)=O)cccc12 [Dansyl-R-(d-Pip)-NH2] (Dansyl-Arg-[dPip]-NH2) :: 370

[I] CC(C)(C)OC(=O)N[C@H](Cc1ccccc1)C(=O)N1CCC[C@H]1C(=O)N[C@@H](CCCNC(=N)N)C(=O)O
[II] N=C(N)NCCC[C@H](NC(=O)[C@@H]1CCCN1C(=O)[C@H](N)Cc1ccccc1)C(=O)O
Task: I need your help: which of the pair I , II has higher Ki? Respond with the label that goes with your answer.
Result: I
